subject of test: T1, cyno IL-23 (cyno, limits assumed)
T1 construct: Heterodimer of p19 and p40; also called cynomolgus IL-23
T1 chain 1: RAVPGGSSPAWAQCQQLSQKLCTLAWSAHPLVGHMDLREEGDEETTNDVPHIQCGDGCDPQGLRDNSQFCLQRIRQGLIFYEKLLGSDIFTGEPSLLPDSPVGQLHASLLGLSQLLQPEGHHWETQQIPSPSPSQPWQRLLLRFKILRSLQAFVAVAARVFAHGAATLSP
T1 chain 2: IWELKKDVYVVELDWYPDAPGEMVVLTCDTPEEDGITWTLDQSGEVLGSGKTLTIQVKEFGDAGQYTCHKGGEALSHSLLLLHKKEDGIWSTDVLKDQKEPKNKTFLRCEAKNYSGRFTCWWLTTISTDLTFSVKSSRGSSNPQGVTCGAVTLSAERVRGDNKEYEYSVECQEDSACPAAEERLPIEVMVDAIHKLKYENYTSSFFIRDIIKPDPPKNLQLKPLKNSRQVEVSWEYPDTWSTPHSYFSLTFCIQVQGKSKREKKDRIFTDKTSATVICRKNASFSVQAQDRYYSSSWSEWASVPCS
procedure details: SPR Biacore, purified mAb captured on anti-human IgG, cyno IL-23 64-0.062 nM
assay endpoint: koff (s⁻¹)
Write the value in s⁻¹ as a bare number.

binder | result unit | koff
A3M0 (antibody, human IgG1, kappa, V domains shown, human gamma1 and kappa constant regions; Tested as HEK supernatant and as purified antibody; also called A3M0 purified) VH: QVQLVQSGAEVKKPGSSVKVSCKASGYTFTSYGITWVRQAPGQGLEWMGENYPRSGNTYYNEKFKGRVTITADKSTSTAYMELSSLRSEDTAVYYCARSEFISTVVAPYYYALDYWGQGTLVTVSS VL: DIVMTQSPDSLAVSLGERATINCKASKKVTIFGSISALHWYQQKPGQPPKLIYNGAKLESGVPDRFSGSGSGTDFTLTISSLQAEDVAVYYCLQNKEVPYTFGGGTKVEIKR | s⁻¹ | 0.000298
A24AM18 (antibody, human IgG1, kappa, V domains shown) VH: QVQLVQSGAEVKKPGSSVKVSCKASGYTFTSYGITWVRQAPGQGLEWMGENYPRSGNIYYNEKFKGRVTITADKSTSTAYMELSSLRSEDTAVYYCARAEFISTVVAPYYYALDYWGQGTLVTVSS VL: DIVMTQSPDSLAVSLGERATINCKASKKVTIFGSTSALHWYQQKPGQPPKLIYNLAKPESGVPDRFSGSGSGTDFTLTISSLQAEDVAVYYCLQNKEVPYTFGGGTKVEIKR | s⁻¹ | 0.000132

Now for another entry.
**Q:** Quick one: koff of A5M20 (antibody, human IgG1, kappa, V domains shown) VH: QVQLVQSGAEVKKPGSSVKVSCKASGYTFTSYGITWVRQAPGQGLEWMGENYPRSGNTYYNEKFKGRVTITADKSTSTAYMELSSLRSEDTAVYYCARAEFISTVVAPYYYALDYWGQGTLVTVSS VL: DIVMTQSPDSLAVSLGERATINCKASKKVTIFGSISALHWYQQKPGQPPKLIYNLAKLESGVPDRFSGSGSGTDFTLTISSLQAEDVAVYYCLQNKEVPYTFGGGTKVEIKR ?
**A:** 0.000176
